Numbers sourced from patent US7807841B2.

Reported IC50 values for the following compounds.
Biological target: Androgen Receptor (AR) (Homo sapiens)
Sequence (P10275 1-920 Q868H): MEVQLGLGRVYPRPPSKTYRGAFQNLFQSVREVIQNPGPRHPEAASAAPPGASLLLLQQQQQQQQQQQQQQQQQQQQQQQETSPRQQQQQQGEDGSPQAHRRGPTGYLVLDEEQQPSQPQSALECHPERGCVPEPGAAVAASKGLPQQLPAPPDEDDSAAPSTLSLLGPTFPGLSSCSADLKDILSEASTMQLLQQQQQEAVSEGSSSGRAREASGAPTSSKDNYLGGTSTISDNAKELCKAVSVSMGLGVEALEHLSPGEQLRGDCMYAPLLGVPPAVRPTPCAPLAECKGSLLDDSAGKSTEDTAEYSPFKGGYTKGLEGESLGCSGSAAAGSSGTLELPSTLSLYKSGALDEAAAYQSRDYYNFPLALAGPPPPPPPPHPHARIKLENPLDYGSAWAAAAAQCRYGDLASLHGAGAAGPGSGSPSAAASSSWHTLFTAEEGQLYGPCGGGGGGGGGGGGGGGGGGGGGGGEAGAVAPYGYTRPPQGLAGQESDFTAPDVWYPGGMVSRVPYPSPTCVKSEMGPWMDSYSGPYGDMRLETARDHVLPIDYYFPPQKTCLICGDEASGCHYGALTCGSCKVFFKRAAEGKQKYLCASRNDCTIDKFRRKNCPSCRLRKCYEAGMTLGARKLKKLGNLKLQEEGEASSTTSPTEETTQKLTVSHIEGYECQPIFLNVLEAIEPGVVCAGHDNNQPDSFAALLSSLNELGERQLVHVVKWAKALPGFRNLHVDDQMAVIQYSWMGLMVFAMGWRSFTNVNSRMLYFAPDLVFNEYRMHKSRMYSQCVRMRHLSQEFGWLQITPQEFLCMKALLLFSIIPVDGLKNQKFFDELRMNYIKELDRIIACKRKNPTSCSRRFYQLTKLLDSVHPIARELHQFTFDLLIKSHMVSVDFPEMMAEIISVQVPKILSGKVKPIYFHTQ
Experiment: Functional assay of androgen receptor antagonism (MMTV luciferase reporter in MDA-kb2 cells)
Conditions: antagonism of dihydrotestosterone (0.3 nM)-induced AR activity
measurement_type: IC50

{"compound": "O=C1CCC2(C3CC3)OC3(CN12)c1ccccc1C=Cc1ccccc13 (centres unmarked) [FRS-10]", "test_target": "Androgen Receptor (AR) (Homo sapiens)", "value_observed": "100 to 1000 nM"}
{"compound": "CC12CCC(=O)N1CC1(O2)c2ccccc2C=Cc2ccccc21 (centres unmarked) [FRS-1]", "test_target": "Androgen Receptor (AR) (Homo sapiens)", "value_observed": "100 to 1000 nM"}
{"compound": "CC12CCCC(=O)N1CC1(O2)c2ccccc2CCc2ccccc21 (centres unmarked) [FRS-14]", "test_target": "Androgen Receptor (AR) (Homo sapiens)", "value_observed": "1000 to 10000 nM"}
{"compound": "O=C1CCCC2(C(F)(F)F)OC3(CN12)c1ccccc1C=Cc1ccccc13 (centres unmarked) [FRS-11]", "test_target": "Androgen Receptor (AR) (Homo sapiens)", "value_observed": "100 to 1000 nM"}
{"compound": "Oc1ccc(C2=NCC3(O2)c2ccccc2C=Cc2ccccc23)cc1 [OXS-1]", "test_target": "Androgen Receptor (AR) (Homo sapiens)", "value_observed": "1000 to 10000 nM"}
